# protocol-text: Selectivity index, ratio of CC50 for HepG2(2.2.15) infected with HBV DNA to EC50 for Hepatitis B virus infected in human HepG2(2.2.15) cells
Hi there, I'd appreciate the recorded Ratio CC50/EC50 for every entry that follows.
One number for each entry.

Please supply Ratio CC50/EC50 for each of the following items, keeping them in order.
1. CC(C(=O)OCCCOP(=O)(COCCn1cnc2c(N)ncnc21)OCCCSC(=O)[C@@H](N)C(C)C)c1cccc(C(=O)c2ccccc2)c1 (stereo partly drawn)
2. CC[C@H](C)[C@H](N)C(=O)OCCOP(=O)(COCCn1cnc2c(N)ncnc21)OCCCOC(=O)C(C)c1ccc(CC(C)C)cc1 (stereo partly drawn)

Resp:
39.01
39.11

Req: Given the compound CC(C)(C)C(=O)OCOP(=O)(COCCn1cnc2c(N)ncnc21)OCOC(=O)C(C)(C)C , what is its reported Ratio CC50/EC50?
Resp: 490.73

* * *

# protocol-text: Selectivity index, ratio of CC50 for HepG2(2.2.15) infected with HBV DNA to EC50 for Hepatitis B virus infected in human HepG2(2.2.15) cells
So basically: Ratio CC50/EC50 at 300 or higher? That is Y. Lower than 300? That is N.

CC(C(=O)OCCCOP(=O)(COCCn1cnc2c(N)ncnc21)OCCOC(=O)[C@@H](N)Cc1ccccc1)c1ccc(-c2ccccc2)c(F)c1 (some centres not stated) ... N
CC[C@H](C)[C@H](N)C(=O)OCCOP(=O)(COCCn1cnc2c(N)ncnc21)OCCCOC(=O)C(C)c1cccc(C(=O)c2ccccc2)c1 (some centres not stated) ... Y

Moving on to the next molecule.
Req: Ratio CC50/EC50 >= 300 for CC(C)Cc1ccc(C(C)C(=O)OCCCOP(=O)(COCCn2cnc3c(N)ncnc32)OCCCSC(=O)[C@@H](N)C(C)C)cc1 (some centres not stated) ?
Resp: N

* * *

# protocol-text: Chemical stability of the compound assessed as drug decomposition at 1 mM in phosphate buffer at pH 2 after 24 hrs by HPLC analysis
# Assay type: physicochemical
# particulars: read-out: Drug degradation
Please provide measured degraded at 24 h, 1000 µM for the entries that follow.
One number for each entry, in %.

Consider the worked cases shown below.
CC(C)Cc1ccc(C(C)C(=O)OCCCOP(=O)(COCCn2cnc3c(N)ncnc32)OCCOC(=O)[C@@H](N)C(C)C)cc1 (some centres not stated) ... 9.6
CC[C@H](C)[C@H](N)C(=O)OCCOP(=O)(COCCn1cnc2c(N)ncnc21)OCCCOC(=O)C(C)c1cccc(C(=O)c2ccccc2)c1 (some centres not stated) ... 14.9
CC[C@H](C)[C@H](N)C(=O)OCCOP(=O)(COCCn1cnc2c(N)ncnc21)OCCCOC(=O)C(C)c1ccc(CC(C)C)cc1 (some centres not stated) ... 12.7

# batch: return degraded at 24 h, 1000 µM for each of the 2 compounds below
1. CC(C(=O)OCCCOP(=O)(COCCn1cnc2c(N)ncnc21)OCCOC(=O)[C@@H](N)C(C)C)c1cccc(C(=O)c2ccccc2)c1 (some centres not stated)
2. CC(C(=O)OCCCOP(=O)(COCCn1cnc2c(N)ncnc21)OCCOC(=O)[C@@H](N)Cc1ccccc1)c1ccc(-c2ccccc2)c(F)c1 (some centres not stated)

Resp:
11.2
14.7

Batch request: degraded at 24 h, 1000 µM for each of the following compounds.
1. CC(C)(C)C(=O)OCOP(=O)(COCCn1cnc2c(N)ncnc21)OCOC(=O)C(C)(C)C
2. CC[C@H](C)[C@H](N)C(=O)OCCOP(=O)(COCCn1cnc2c(N)ncnc21)OCCCOC(=O)C(C)c1ccc(-c2ccccc2)c(F)c1 (some centres not stated)

Resp:
1. 42.5
2. 15.3
